Reported pIC50 by item:
- Assay System: H1299 cell pMer (Homo sapiens)
- Construct: The H1299 cells were inoculated in a 6-well plate; endogenous in cells
- Sequence (Q12866 21-999): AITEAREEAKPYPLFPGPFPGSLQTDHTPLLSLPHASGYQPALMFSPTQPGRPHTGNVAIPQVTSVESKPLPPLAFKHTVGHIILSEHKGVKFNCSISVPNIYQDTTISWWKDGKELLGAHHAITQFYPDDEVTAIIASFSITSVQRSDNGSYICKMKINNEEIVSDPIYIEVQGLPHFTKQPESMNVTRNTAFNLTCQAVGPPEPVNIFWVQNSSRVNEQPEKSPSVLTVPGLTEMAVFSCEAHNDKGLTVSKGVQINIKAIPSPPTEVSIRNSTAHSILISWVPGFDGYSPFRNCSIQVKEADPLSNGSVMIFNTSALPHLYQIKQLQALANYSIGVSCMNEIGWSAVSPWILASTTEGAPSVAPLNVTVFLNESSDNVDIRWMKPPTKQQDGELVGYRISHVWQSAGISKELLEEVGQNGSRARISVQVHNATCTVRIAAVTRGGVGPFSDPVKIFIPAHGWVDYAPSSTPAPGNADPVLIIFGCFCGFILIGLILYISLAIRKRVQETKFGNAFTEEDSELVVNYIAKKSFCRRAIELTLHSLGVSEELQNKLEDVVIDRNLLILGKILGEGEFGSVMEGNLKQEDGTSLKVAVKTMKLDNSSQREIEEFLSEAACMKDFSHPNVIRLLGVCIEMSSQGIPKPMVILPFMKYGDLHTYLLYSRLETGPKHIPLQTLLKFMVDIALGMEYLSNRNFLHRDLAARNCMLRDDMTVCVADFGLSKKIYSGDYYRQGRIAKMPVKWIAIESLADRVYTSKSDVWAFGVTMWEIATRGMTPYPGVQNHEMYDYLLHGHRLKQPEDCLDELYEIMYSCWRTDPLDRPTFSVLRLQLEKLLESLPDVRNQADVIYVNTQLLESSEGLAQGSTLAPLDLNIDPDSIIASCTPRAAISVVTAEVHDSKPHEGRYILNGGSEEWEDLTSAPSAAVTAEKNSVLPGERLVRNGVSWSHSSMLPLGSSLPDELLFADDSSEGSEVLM
- Assay Summary: Inhibitory activity on the cell pMer (Western Blot)
- Measurement Context: H1299 cells, compound 0.35, 1.1, 3.3, 10 nM, Human MerMab 200 ng/mL
pIC50: −log10 of the molar value.

Molecule: COc1cc2nccc(Oc3cnc(NC(=O)c4cn(C5CC5)cc(-c5ccc(F)cc5)c4=O)nc3)c2cc1OC [Compound 32]
Observed: > 8.96
--
Molecule: COc1cc2nccc(Oc3ccc(NC(=O)c4nn(C(C)C)cc(-c5ccc(F)cc5)c4=O)nc3)c2cc1OC [Compound 15]
Observed: > 9.46
--
Molecule: COc1cc2nccc(Oc3ccc(NC(=O)c4cn(C(C)C)cc(-c5ccc(F)cc5)c4=O)nc3)c2cc1OC [Compound 14]
Observed: 9.46
--
Molecule: COc1cc2nccc(Oc3ccc(NC(=O)c4cn(C(C)C)cc(-c5ccc(C)cc5)c4=O)nc3)c2cc1OC [Compound 1]
Observed: 8.48 to 8.96
--
Molecule: COc1cc2nccc(Oc3ccc(NC(=O)c4nn(C5CC5)cc(-c5ccc(C)cc5)c4=O)nc3)c2cc1OC [Compound 46]
Observed: > 9.43
--
Molecule: COc1cc2nccc(Oc3ncc(NC(=O)c4nn(C5CC5)cc(-c5ccc(F)cc5)c4=O)cn3)c2cc1OC [Compound 37]
Observed: 8.48 to 8.96
--
Molecule: COc1cc2nccc(Oc3cnc(NC(=O)c4cn(C(C)C)nc(-c5ccc(F)cc5)c4=O)nc3)c2cc1OC [Compound 39]
Observed: 8.96
--
Molecule: COc1cc2nccc(Oc3ccc(NC(=O)c4cn(C5CC5)cc(-c5ccc(F)cc5)c4=O)nc3)c2cc1OC [Compound 30]
Observed: 8.48 to 8.96

Record request: pIC50 value, item COc1cc2nccc(Oc3cnc(NC(=O)c4cn(C(C)C)cc(-c5ccc(F)cc5)c4=O)nc3)c2cc1OC [Compound 20]
8.96
